Study target: LasR (Pseudomonas aeruginosa, UniProt P25084)
Sequence (P25084 whole entry): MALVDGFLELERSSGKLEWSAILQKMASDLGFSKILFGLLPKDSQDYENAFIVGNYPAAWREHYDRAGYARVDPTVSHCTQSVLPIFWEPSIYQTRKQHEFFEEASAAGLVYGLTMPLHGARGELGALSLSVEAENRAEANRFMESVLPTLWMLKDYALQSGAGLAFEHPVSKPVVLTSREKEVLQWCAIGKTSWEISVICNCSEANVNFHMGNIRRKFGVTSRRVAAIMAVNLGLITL
Assay name: LasR antagonism assay
pIC50: −log10 of the molar value.
Readout name: pIC50

Structure string: C[Si](C)(c1ccccc1)c1ccc(CC(=O)N[C@H]2CCOC2=O)cc1
Reported value: 4.84
//
Structure string: CCCC[Si](C)(C)c1ccc(CC(=O)N[C@H]2CCOC2=O)cc1
Reported value: 5.03

====

Study target: LasR (Pseudomonas aeruginosa, UniProt P25084)
Construct: expressed in transfected cells; host or cells: E. coli (reporter strain)
Assay name: cell-based
Measurement conditions: read-out: Maximum Activation (%)
Parameter: Emax. Scope: all listed entries.

Structure string: C[Si](C)(CCCCC(=O)CC(=O)N[C@H]1CCOC1=O)c1ccccc1
Unit abbrev: %
Emax: 106
--
Structure string: CCCCCCCC[Si](C)(C)CCCCCCC(=O)N[C@H]1CCOC1=O
Unit abbrev: %
Emax: 25
--
Structure string: C[Si](C)(C)O[Si](C)(C)CCCCC(=O)N[C@H]1CCOC1=O
Unit abbrev: %
Emax: 94

====

Parameter: Emax. Scope: all listed entries.
Study target: LasR (Pseudomonas aeruginosa, UniProt P25084)
Construct: expressed in transfected cells; host or cells: E. coli (reporter strain)
Assay name: cell-based
Measurement conditions: read-out: Maximum Activation (%)
Readout name: Emax (%)

Structure string: C[Si](C)(CCCCC(=O)N[C@H]1CCOC1=O)c1ccccc1
Study target: LasR (Pseudomonas aeruginosa, UniProt P25084)
Reported value: 96.1

Structure string: CCCC[Si](C)(C)c1ccc(CC(=O)N[C@H]2CCOC2=O)cc1
Study target: LasR (Pseudomonas aeruginosa, UniProt P25084)
Reported value: 14.1

Structure string: C[Si](C)(c1ccccc1)c1ccc(CC(=O)N[C@H]2CCOC2=O)cc1
Study target: LasR (Pseudomonas aeruginosa, UniProt P25084)
Reported value: 9

Structure string: CCCC[Si](CCCC)(CCCC)CCCCC(=O)N[C@H]1CCOC1=O
Study target: LasR (Pseudomonas aeruginosa, UniProt P25084)
Reported value: 79.8

Structure string: CC[Si](CC)(CC)CCCCC(=O)N[C@H]1CCOC1=O
Study target: LasR (Pseudomonas aeruginosa, UniProt P25084)
Reported value: 94.3

Structure string: CC[Si](CC)(CC)CCCCC(=O)CC(=O)N[C@H]1CCOC1=O
Study target: LasR (Pseudomonas aeruginosa, UniProt P25084)
Reported value: 86

Structure string: C[Si](C)(CCCCCCC(=O)N[C@H]1CCOC1=O)c1ccccc1
Study target: LasR (Pseudomonas aeruginosa, UniProt P25084)
Reported value: 99.7

Structure string: CCCC[Si](C)(C)CCCCC(=O)N[C@H]1CCOC1=O
Study target: LasR (Pseudomonas aeruginosa, UniProt P25084)
Reported value: 101

Structure string: CCCC[Si](C)(C)CCCCCCC(=O)N[C@H]1CCOC1=O
Study target: LasR (Pseudomonas aeruginosa, UniProt P25084)
Reported value: 90.4

Structure string: CCCCCCCC[Si](C)(C)CCCCC(=O)N[C@H]1CCOC1=O
Study target: LasR (Pseudomonas aeruginosa, UniProt P25084)
Reported value: 101

====

Study target: LasR (Pseudomonas aeruginosa)
Assay name: cell-based
Procedure: 15 compounds were assayed for LasR agonism using a beta-glo reporter assay in E. coli.
pEC50: −log10 of the molar value.

Molecule: C[Si](C)(c1ccccc1)c1ccc(CC(=O)N[C@H]2CCOC2=O)cc1 [LSD 133]
Study target: LasR (Pseudomonas aeruginosa)
pEC50: 7.82
